meta.source: patent US20240327425A1

Each entry below carries its recorded pIC50.
measured.on: Human KRAS G12D His-tagged protein (Homo sapiens (Human), UniProt P01116, G12D)
Sequence (P01116-2 other isoform, or with tags, fused parts or gaps G12D): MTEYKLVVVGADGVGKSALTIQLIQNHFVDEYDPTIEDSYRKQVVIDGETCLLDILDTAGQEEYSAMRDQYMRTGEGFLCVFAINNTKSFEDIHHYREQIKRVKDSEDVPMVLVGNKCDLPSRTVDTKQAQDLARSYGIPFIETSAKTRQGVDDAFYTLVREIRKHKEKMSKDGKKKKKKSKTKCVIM
method.notes: KRAS G12D binding assay (TR-FRET)
applied.conditions: GDP 20 nM, GTP-Red
pIC50: −log10 of the molar value.
endpoint.label: pIC50

compound	result.number
CN1CCC[C@@H]1COc1nc2c3c(c(Cl)c(-c4cccc5sc(N)c(C#N)c45)c(F)c3n1)OC[C@@H]1[C@@H]3CC[C@H](CN21)N3	7.97
CC(Oc1nc2c3c(c(Cl)c(-c4c(F)ccc5sc(N)c(C#N)c45)c(F)c3n1)OC[C@@H]1[C@@H]3CC[C@H](CN21)N3)[C@@]12CCCN1C[C@H](F)C2 (stereo partly shown)	7.66
Nc1cc2c(-c3c(Cl)c4c5c(nc(OC[C@@]67CCCN6C[C@H](F)C7)nc5c3F)N3C[C@H]5CC[C@H](N5)[C@H]3CO4)c(Cl)ccc2s1	7.42
Nc1nc2c(-c3c(Cl)c4c5c(nc(OC[C@@]67CCCN6C[C@H](F)C7)nc5c3F)N3C[C@H]5CC[C@H](N5)[C@H]3CO4)cccc2s1 (single isomer, unassigned) [Compound I-12-1]	7.52
